- System: MDA-MB-435 melanoma
- assay.info: NCI-60 one-dose screen, 48 h
- stated.conditions: 10 µM unless noted
- Procedure: Growth inhibition of the MDA-MB-435 human Melanoma tumor cell line is measured as a screen for anti-cancer activity. Cells are grown in 96 well plates and exposed to the test compound for 48 hours. Compounds are tested at a single concentration, which is 10^-5 M for most compounds. The reported endpoint is percent growth (GI% or GIPRCNT), where numbers from 0 - 100% represent growth inhibition, and numbers from -100% - 0 represent cell death. […]
About 83,000 compounds went through this panel and 20% of them were active in at least one assay; those are over-represented in the sample as a whole. Calls of active or inactive are those of the source. Rule for the calls: active = growth percent below 10; inactive = the rest.
Outcome codes: 1 = active, -1 = inactive

1. Nc1cc(N)c2nc(NCCc3ccc(Cl)c(Cl)c3)cnc2c1	1
2. COc1ccc2c(c1)cn1c3ccc(O)cc3[nH]c(=O)c21	1
3. O=C(O)CS(=O)c1ccc(Cl)cc1 (configuration not stated)	-1
4. Br/C(=N\Nc1nn[nH]n1)c1ccccc1	-1
5. O=C1/C(=C/c2ccc(Cl)cc2)CCC/C1=C\c1ccc(Cl)cc1	-1
6. CC(=O)Oc1cc2ccccc2cc1C(C)C	-1
7. O=S(=O)(O)CCI	-1
8. COc1ccc(NC(=O)/C=C(C)/C=C/C=C(C)/C=C/C2=C(C)CCCC2(C)C)cc1	-1
9. COc1cc2ncnc(-n3ncc4cc(NC(=O)Nc5ccccc5)ccc43)c2cc1OC	-1
10. CCOC1=C(Cl)C(=O)C(OCC)=C(Cl)C1=O	-1
11. NC(N)=Nc1ccc(/C=C2\C=Cc3ccccc32)cc1	-1
12. Cc1ccc([C@@H]2C[C@H](O)Cc3ccccc3N2)s1	-1
13. CC#Cc1nc(Nc2cc(C)[nH]n2)c2ccccc2n1	1
14. CC(=O)Nc1nc(C)c(C(=O)N/N=C/c2cccs2)s1	-1
15. O=C(c1ccccc1)c1ccccc1-c1ccccc1	1
16. CC(=O)CCS(=O)c1ccccc1 (configuration not stated)	-1
17. CC(=O)NCCN	-1
18. O=C(Nc1cccc(Cn2c(=O)[nH]c3ccc(Oc4ncccn4)cc3c2=O)c1)c1cccc(F)c1	-1
19. CN(C)CCOC(=O)C(C)(C)C	-1
20. O=C(N/N=C\c1ccc(-c2ccc(Br)cc2)o1)c1cc2oc(-c3cccc(C(F)(F)F)c3)cc2[nH]1	-1
21. CCCCCCCCCCCCCCCCCCOP(=O)(O)O	-1
22. CC(=N\N=C(N)N)/C(=N/N=C(N)N)c1ccccc1	-1
23. CN(CCC#N)c1ccc(/C=C(\C#N)c2cccc(C(F)(F)F)c2)cc1	1
24. COCC(=O)NNc1[nH]c(-c2ccc(OC)cc2)cc1C#N	-1
25. CCCC(C)c1cc(Cc2cc(Cl)cc(Cl)c2O)c(O)c(Cc2cc(Cl)cc(Cl)c2O)c1 (configuration not stated)	1
26. O=C(CCCC(=O)Nc1ccc(Cn2nnc3cc(Cl)c(Cl)cc32)cc1)Nc1ccc(CN2N=NC3C=C(Cl)C(Cl)=CC32)cc1 (configuration not stated)	-1
27. COc1nc(OC)nc(-c2cc(-c3cc(OC)c(OC)c(OC)c3)no2)n1	-1
28. CC[C@@H](C)/C=C(C)/C=C/C(=O)c1c(O)c(-c2ccc(OC(=O)[C@@]34CC[C@@](C)(C(=O)O3)C4(C)C)cc2)cn(O)c1=O	-1
29. CCOC(=O)c1ccc2n1CCCc1cnc(NC(C)=O)nc1-2	-1
30. COc1ccccc1Nc1nnc(COc2ccc(CNC(=O)CCCC/C=C/C(C)C)cc2OC)o1	-1
31. COc1ccc(Cn2cc3c(c2-c2ccccc2)CCc2cnoc2-3)cc1OC	1
32. O=C(NC1CCN(Cc2ccccc2)CC1)c1cc(-c2cccnc2)nc2ccc(Cl)cc12	-1
33. COc1cc(-c2nn(-c3ccc(NC(=O)c4ccc(Cl)c(Cl)c4)cc3)cc2-c2ccncc2)ccc1Cl	-1
34. O=C(N/N=C/c1coc2ccccc2c1=O)c1cc2oc(-c3ccccc3)cc2[nH]1	-1
35. NCCCOc1cc(Cl)ccc1NC(=O)c1cc2ccccc2cc1OCCCN	1
36. CCCCCC(=C/c1ccccc1)/C=N/N=C(N)N	1
37. CSC1=Nc2c(c(C)c(-c3ccccc3)n2CCCCl)C2=NC(=O)CN12	1

---

- System: MOLT-4 leukemia
- assay.info: NCI-60 one-dose screen, 48 h (100 = growth as untreated, 0 = no growth, -100 = all killed)
- stated.conditions: 10 µM unless noted
This is part of a sample that, as a whole, favours compounds with a hit. Of some 83,000 tested, about 20% had one in any assay.
Recorded growth determines the label; the label ranges are low (below 30%), intermediate (30% to below 90%), high (90% or more)

1) CC(=O)/C(=C/c1ccc(-c2ccccc2)cc1)C(=O)c1ccccc1	low
2) COC(=O)c1cc(Nc2ccc(O)c3c2C(=O)c2c([N+](=O)[O-])ccc(O)c2C3=O)cc(C(=O)OC)c1	low
3) CCC(C)(C)c1ccc(OCCCCCCN2CCNCC2)cc1	low
4) Clc1ccc(N/N=C/c2ccccn2)nc1	low
5) Cc1nc2ccccc2c(=O)n1-c1cccc(OCc2cn(-c3cccc(O)c3)nn2)c1	intermediate
6) COc1ccccc1Nc1nnc(COc2ccc(CNC(=O)CCCC/C=C/C(C)C)cc2OC)o1	intermediate
7) CC(=O)Nc1nc(C)c(C(=O)NN)s1	high
8) CC(C)OCC1CO1 (stereo unspecified)	high

---

- Test system: NCI-H522 lung
- assay.info: NCI-60 one-dose screen, 48 h (100 = growth as untreated, 0 = no growth, -100 = all killed)
- stated.conditions: 10 µM
Compounds without any hit were thinned out: in the full panel of roughly 83,000, 20% have a hit.
Recorded growth determines the label; the label ranges are lower bin (below 30%), middle bin (30% to below 80%), upper bin (80% or more)

1. O=C(CCCC(=O)Nc1ccc(Cn2nnc3cc(Cl)c(Cl)cc32)cc1)Nc1ccc(CN2N=NC3C=C(Cl)C(Cl)=CC32)cc1 (stereo not drawn)	middle bin
2. COc1cc(OC)cc(-c2ccc(-c3ccc(C(=N)N)cc3)s2)c1	lower bin
3. CCCCCCCCCCCCc1ccc([N+](CC)(CC)CC)cc1	middle bin
4. COc1ccc(CN2C(=O)/C(=C\C(=O)c3ccc(OCCN4CCCCC4)cc3)c3ccccc32)cc1	lower bin
5. O=C1N/C(=N\c2nnc(-c3ccc(O)cc3)s2)S/C1=C\c1ccccc1O	upper bin
6. NC(=O)c1c(Nc2ccccc2)nn2cc(-c3nc4ccccc4s3)c(N)nc12	upper bin
7. CC(=O)Nc1nc(C)c(C(=O)NNC(=O)Nc2ccccc2)s1	middle bin
8. COc1ccc2c(N)ncc(C#Cc3cc(C(=O)Nc4ccc(CN5CCN(C)CC5)c(C(F)(F)F)c4)cnc3C)c2c1	lower bin
9. O=C(Nc1cccc2[nH]c(C(F)(F)F)nc12)c1ccc(F)cc1	middle bin
10. CC(C)OC(=O)c1ccc2n1CCCc1cnc(Nc3ccccc3)nc1-2	middle bin
11. CCCCCCNC(=O)Oc1ccc(/C(=C(/C)Cc2ccc(OC)cc2)c2ccc(OCCN(C)C)cc2)cc1	middle bin
12. CC(=N\N=C(N)N)/C(=N/N=C(N)N)c1ccccc1	upper bin
13. COc1ccccc1Cn1cc2c(c1)-c1oncc1CC2	middle bin
14. CCOC(=O)c1cc(C(=O)c2ccc(Br)cc2)n2cc(C)cc(C)c12	middle bin
15. CC1=C(C)C(=O)C(C(C)C2=C(C)C(=O)C(C)=C(C)C2=O)=C(C)C1=O	upper bin
16. CCCCCCCCCc1cc[n+](CC(=O)c2ccc([N+](=O)[O-])cc2)cc1	lower bin
17. Cc1ccnc2c(NC(C)CCCN)cc(O)c(O)c12 (stereo not drawn)	lower bin

---

- Test system: SF-539 CNS
- assay.info: NCI-60 one-dose screen, 48 h (100 = growth as untreated, 0 = no growth, -100 = all killed)
- stated.conditions: 10 µM unless noted
- Experimental: Cells are grown in 96 well plates and exposed to the test compound for 48 hours. Compounds are tested at a single concentration, which is 10^-5 M for most compounds. The reported endpoint is percent growth (GI% or GIPRCNT), where numbers from 0 - 100% represent growth inhibition, and numbers from -100% - 0 represent cell death. For example, a value of 40 represents 60% growth inhibition. A value of 0 means no net growth occurred over the course of the experiment. […]
This is part of a sample that, as a whole, favours compounds with a hit. Of some 83,000 tested, about 20% had one in any assay. Calls of active or inactive are those of the source. The calls were made as follows: active = growth percent below 10; inactive = the rest.
List of growth values.
quantity.measured: growth

1) COC(=O)[C@@H]1[C@H](O)[C@H](C)[C@H](O)[C@H](C)/C=C\C=C(C)C(=O)Nc2c(C)c(OC(C)=O)c3c(c2O)C(=O)C(C)=C2OCOC(=C23)C(C)=C[C@@](C)(O)[C@H](O)[C@@H](C)[C@H]1OC(C)=O	101% (inactive)
2) CC(Br)c1nc2ccccc2cc1C(N)=O (centres undefined)	103% (inactive)
3) CC(C)(C)C(=O)OCOP(=O)(OCOC(=O)C(C)(C)C)C1CC(O)N(O)C1=O (centres undefined)	39.3% (inactive)
4) CCCCCCCCc1ccc(OCCOCC[N+](C)(C)CC)cc1 (tested in a mixture with another compound)	18.4% (inactive)
5) c1cc[c]([Bi]([c]2ccccc2)[c]2ccccc2)cc1	105% (inactive)
6) Clc1ccc(N/N=C(/c2ccccc2)c2ccccn2)nc1	41.3% (inactive)
7) O=C(Nc1cccc(Cn2c(=O)[nH]c3ccc(Oc4ncccn4)cc3c2=O)c1)c1cc(Cl)cc(Cl)c1	11.8% (inactive)
8) Cn1cnc2nc[nH]c2c1=S	110% (inactive)
9) CSCc1ncc(-c2ccc(C(F)(F)F)cc2)c(NC2CCCCCC2)n1	93.8% [25 µM] (inactive)
